Data origin: paper PMC7211195

Assay: Lapatinib pharmacokinetics and uptake in rat cerebrospinal fluid (CSF)
Type: in vivo, rats
Details: male, Wistar, rat, cerebrospinal fluid, oral, lapatinib 100 mg/kg + elacridar, 0.5 h; read-out: Clapatinib in CSF, S
measurement label: concentration at 0.5 h (ng/mL)

smi: CS(=O)(=O)CCNCc1ccc(-c2ccc3ncnc(Nc4ccc(OCc5cccc(F)c5)c(Cl)c4)c3c2)o1
numeric result: 40.7

----------
Test: Lapatinib pharmacokinetics and uptake in rat brain tissue (BT)
Format: in vivo, rats
Settings: male, Wistar, rat, brain tissue homogenate, po, 100 mg/kg, lapatinib p.o. 100 mg/kg alone, 4 h; read-out: Clapatinib in BT, single rat
measurement label: concentration at 4 h (ng/mL)

smi: CS(=O)(=O)CCNCc1ccc(-c2ccc3ncnc(Nc4ccc(OCc5cccc(F)c5)c(Cl)c4)c3c2)o1
measurement label: concentration at 4 h
result unit: ng/mL
numeric result: 133
